Could you please report measured growth inhibition for the items listed next?
- experiment_notes: NCI Yeast Anticancer Drug Screen. Data for the sgs1 mgt1 strain (AID 161);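 note: 0% = growth of cultures given vehicle only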
- assay_setup: S. cerevisiae sgs1 mgt1 strain, at 5.0 µM (retest, dose inferred, filed as 0.5), active compounds read high
The panel holds about 79,000 compounds, 15% with a hit somewhere; the sample as a whole holds those more often. Where a SMILES comes first, the peptide text is derived from it. The star is where a group is joined. Trt = c1ccc(C(c2ccccc2)(c2ccccc2)*)cc1; OtBu = CC(C)(C)O*
Answers are plain numbers, in %.

C#Cc1cccc(N2C(=O)CCC2=O)c1
99

I would be grateful if you could provide growth inhibition for each of the following entries.
1. Cc1nc(N)sc1N=Nc1cc(Cl)c([N+](=O)[O-])cc1Cl
2. CC(C)(C)OC(=O)CNC(=O)C(Cc1ccccc1)NC(=O)C(N)CSC(c1ccccc1)(c1ccccc1)c1ccccc1 (stereo not drawn) (H-Cys(Trt)-Phe-Gly-OtBu; configuration not given here)
3. CCOc1ccc(/C=C2\NC(=S)N(/C=C3\C(=O)Oc4ccccc4C3=O)C2=O)cc1

# output
1: 4; 2: 0; 3: -30

* * *

Could you please report measured growth inhibition for the items listed next?
- experiment_notes: NCI Yeast Anticancer Drug Screen. Data for the sgs1 mgt1 strain (AID 161);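 note: 0% = growth of cultures given vehicle only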
- assay_setup: S. cerevisiae sgs1 mgt1 strain, at 5.0 µM (retest, dose inferred, filed as 0.5), active compounds read high
- Method: Growth inhibition of yeast strains with defined genetic alterations is measured as a screen for potential anti-cancer activity. Selected strains with alterations in DNA damage repair or cell cycle control were exposed to compounds and growth inhibition was measured relative to vehicle treated controls. The strain used in this assay is sgs1 mgt1
Compounds without any hit were thinned out: in the full panel of roughly 79,000, 15% have a hit.
One number for each entry, in %.

The following compounds have reported results that may help.
CS(=O)(=O)N1C(=O)C2C3CCC(O3)C2C1=O (configuration not stated)
-61
CN=C1NS(=O)(=O)c2ccccc21
4
NC(=S)NNC(=O)c1cccnc1
2
O=C1c2ccc(Cl)cc2C(=O)c2cc(Cl)ccc21
3
C#CC(O)c1ccc(Cl)cc1Cl (configuration not stated)
0
CC(C)C1COC(c2ccc3ccccc3c2-c2c(O[Si](C)(C)C(C)(C)C)ccc3ccccc23)=N1 (configuration not stated)
12

I would be grateful if you could provide growth inhibition for each of the following entries.
1. CC(c1ccc2cccc(F)c2c1)c1ccccc1C(=O)O (configuration not stated)
2. N#CCc1ccccc1-c1cccc2ccccc12
3. Nc1nc(-c2ccccc2)nc(Cl)c1I
4. O=P(N=P(c1ccccc1)(c1ccccc1)c1ccccc1)(c1ccccc1)c1ccccc1
5. Cc1ccc(Oc2ccc(C(=O)C(CN(C)C)CN(C)C)cc2)cc1
6. Clc1cc(Cl)c2cc3cccc[n+]3cc2c1Cl

# output
1. -1
2. -2
3. 3
4. 49
5. 95
6. 2

* * *

- experiment_notes: NCI Yeast Anticancer Drug Screen. Data for the bub3 strain (AID 167)
- assay_setup: S. cerevisiae bub3 mutant strain, at 50.0 µM (retest, dose inferred, filed as 5.0)
The panel holds about 79,000 compounds, 15% with a hit somewhere; the sample as a whole holds those more often. Active and inactive are the calls of the source. No stated cut-off is given here; in the data, active means growth inhibition above about 70%; inactive means the rest.
Can you answer with just one of these options? label 1 (active), label 0 (inactive)

Worked examples follow.
CC(=O)Nc1c(Cl)ccc2c1Cc1cc([N+](=O)[O-])ccc1-2
label 0
Fc1ccc(NC(=S)SCc2ccccc2)cc1F
label 1
N#CC#Cc1cccc(C#CC#N)c1
label 1
CCCCN1C(=O)C[C@H]2[C@@H]3CCc4cc(OCCN5CCCC5)ccc4[C@H]3CC[C@]2(C)C1=O
label 1
Cc1c2ccnc(-c3ccc(F)cc3)c2cc2c1[nH]c1ccccc12
label 0

# input Check the results log: what was the call for CC[C@H](CC[C@@H](C)C1CC[C@H]2[C@@H]3CCC4=CC(=O)CC[C@]4(C)[C@H]3CC[C@]12C)C(C)C (stereo partly drawn) ?
# output label 0

# input Check the results log: what was the call for "Cc1[nH]c2c(C)c3c([nH]c4ccc(Cl)cc43)c(C)c2c(=O)c1C" ?
# output label 0

# input Check the results log: what was the call for "CCC(=NCCCCCCN=C(CC)c1cc(C)cc([N+](=O)[O-])c1O)c1cc(C)cc([N+](=O)[O-])c1O.[Fe]" ?
# output label 1

* * *

- experiment_notes: NCI Yeast Anticancer Drug Screen. Data for the mlh1 rad18 strain (AID 175)
- assay_setup: S. cerevisiae mlh1 rad18 strain growth inhibition; at 50.0 µM (retest, dose inferred, filed as 5.0)
About 79,000 compounds went through this panel and 15% of them were active in at least one assay; those are over-represented in the sample as a whole. Active and inactive are the calls of the source. Cut-off read from the data, not from the text of the source: active = growth inhibition above about 70%; inactive = the rest.
Can you answer with just one of these options? Y = active, N = inactive

Worked examples follow.
N#Cc1ncc(Cl)cc1[N+](=O)[O-]
Y
Nc1nc(-c2ccccc2)cc(-c2ccccc2O)n1
N
CCCCCC(C)(C)N=C=S
N
C1=C(c2c(-c3ccccc3)[nH]c3ccccc23)Cc2ccccc21
Y
CN(C)c1nc(Cl)nc2c1ncn2C1OCC(O)C(O)C1O (configuration not stated)
N

# input Check the results log: what was the call for "CCOc1ccc(N=Nc2ccccc2)cc1" ?
# output N

# input Check the results log: what was the call for "Nc1ccc([N+](=O)[O-])cc1Nc1c2ccccc2nc2ccccc12" ?
# output N

* * *

- experiment_notes: NCI Yeast Anticancer Drug Screen. Data for the cln2 rad14 strain (AID 165);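 note: 0% = growth equal to vehicle treated cultures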
- assay_setup: S. cerevisiae cln2 rad14 strain, at 50.0 µM, active compounds read high
The panel holds about 79,000 compounds, 15% with a hit somewhere; the sample as a whole holds those more often.
True means recorded growth inhibition is 70% or above; False means it is below 70%.

O=C(O)C1C(C(=O)O)C2C(=O)C=CC1N2Cc1ccccc1 (stereo not given)
False
CN(C)C(=O)/N=c1\ss/c(=N\C(=S)N(C)C)n1-c1ccccc1
False
CCSc1nnc(CSc2nc(-c3ccccc3)c(-c3ccccc3)[nH]2)n1-c1ccccc1
True

# input Is it the case that CC([C@H]1CCC2C3CCC4CC5(CC[C@]4(C)C3CC[C@@]21C)c1ccccc1C(=O)N5C)N(C)C (stereo not given in full) has growth inhibition reaching or exceeding 70%?
# output True

# input Is it the case that "C#Cc1cccc(N2C(=O)CCC2=O)c1" has growth inhibition reaching or exceeding 70%?
# output True

* * *

Could you please report measured growth inhibition for the items listed next?
- experiment_notes: NCI Yeast Anticancer Drug Screen. Data for the bub3 strain (AID 167)
- assay_setup: S. cerevisiae bub3 mutant strain, at 50.0 µM (retest, dose inferred, filed as 5.0), active compounds read high
About 79,000 compounds went through this panel and 15% of them were active in at least one assay; those are over-represented in the sample as a whole.
One number for each entry, in %.

The following compounds have reported results that may help.
C/C=C/C(=O)NCC(C(C)C)/[N+]([O-])=N/O (stereo not given)
86
CC1CC2(C)ON=C(c3ccccc3)N2c2ccccc2S1 (stereo not given)
97
FC(F)(F)c1nc2cc(SSc3cc4nc(C(F)(F)F)[nH]c4cc3Cl)c(Cl)cc2[nH]1
61
COC(=O)c1nnn(-c2cc(Cl)ccc2Cl)c1C(=O)c1ccc(Cl)c(Cl)c1
99
Cc1cc2c(c3c1C(=O)CC3)C(C)(C)CC2(C)C
92
CC(C)(C)c1c2c(c(C(C)(C)C)c3c1OCN(Cc1ccccc1)C3)OCN(Cc1ccccc1)C2
18
c1cc[c]([Ge]([O]c2cccc3cccnc23)([c]2ccccc2)[c]2ccccc2)cc1
7
S=c1c2cn[nH]c2nc2scc(-c3ccc(Cl)cc3)n12
97
O=S(=O)(Nc1ccc(NS(=O)(=O)c2ccccc2)c(N2N=N2)c1)c1ccccc1
62

With those in mind, consider the next compound.
# input Can you look up the measured growth inhibition of "Cc1nc2c(O)c3c(c(O)c2nc1C)C1C=CC3CC1" for me?
# output 91

* * *

- experiment_notes: NCI Yeast Anticancer Drug Screen. Data for the sgs1 mgt1 strain (AID 161);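 note: 0% = growth of cultures given vehicle only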
- assay_setup: S. cerevisiae sgs1 mgt1 strain, at 50.0 µM, active compounds read high
This is part of a sample that, as a whole, favours compounds with a hit. Of some 79,000 tested, about 15% had one in any assay.
met means recorded growth inhibition is 90% or above; not met means it is below 90%.

CN(C)C(=S)/N=c1\sn(C)/c(=N\C(=S)N(C)C)n1C
not met
CC(C(=O)NN)C(O)C(C)(C)O (stereo unspecified)
not met
O=C(c1cccs1)N(C(=S)N1CCN(c2ccccn2)CC1)c1ccccc1
not met
CC(C)(CC(=O)NNc1ccccc1)C(=O)O
not met

# input Is it the case that N#CC(CC(Br)CBr)(c1ccccc1)c1ccccc1 (stereo unspecified) has growth inhibition reaching or exceeding 90%?
# output not met

# input Is it the case that "COc1ccc2nc(-c3ccc(Cl)cc3)[nH]c2c1" has growth inhibition reaching or exceeding 90%?
# output not met

# input Is it the case that "Clc1ccc(C2=CCN3CC=C(c4ccc(Cl)cc4)C23)cc1" has growth inhibition reaching or exceeding 90%?
# output met

# input Is it the case that "CCCC(c1ccc(O)cc1)c1ccc(O)cc1" has growth inhibition reaching or exceeding 90%?
# output met

# input Is it the case that O=S(=O)(O)c1ccc2c(c1)C1C(C3C2C2(Cl)C(Cl)=C(Cl)C3(Cl)C2(Cl)Cl)C2(Cl)C(Cl)=C(Cl)C1(Cl)C2(Cl)Cl (stereo unspecified) has growth inhibition reaching or exceeding 90%?
# output not met
